log10(IC50) values for the molecules below.
Biological target: Dipeptidyl peptidase 4 (Homo sapiens, UniProt P27487)
Sequence (P27487 whole entry): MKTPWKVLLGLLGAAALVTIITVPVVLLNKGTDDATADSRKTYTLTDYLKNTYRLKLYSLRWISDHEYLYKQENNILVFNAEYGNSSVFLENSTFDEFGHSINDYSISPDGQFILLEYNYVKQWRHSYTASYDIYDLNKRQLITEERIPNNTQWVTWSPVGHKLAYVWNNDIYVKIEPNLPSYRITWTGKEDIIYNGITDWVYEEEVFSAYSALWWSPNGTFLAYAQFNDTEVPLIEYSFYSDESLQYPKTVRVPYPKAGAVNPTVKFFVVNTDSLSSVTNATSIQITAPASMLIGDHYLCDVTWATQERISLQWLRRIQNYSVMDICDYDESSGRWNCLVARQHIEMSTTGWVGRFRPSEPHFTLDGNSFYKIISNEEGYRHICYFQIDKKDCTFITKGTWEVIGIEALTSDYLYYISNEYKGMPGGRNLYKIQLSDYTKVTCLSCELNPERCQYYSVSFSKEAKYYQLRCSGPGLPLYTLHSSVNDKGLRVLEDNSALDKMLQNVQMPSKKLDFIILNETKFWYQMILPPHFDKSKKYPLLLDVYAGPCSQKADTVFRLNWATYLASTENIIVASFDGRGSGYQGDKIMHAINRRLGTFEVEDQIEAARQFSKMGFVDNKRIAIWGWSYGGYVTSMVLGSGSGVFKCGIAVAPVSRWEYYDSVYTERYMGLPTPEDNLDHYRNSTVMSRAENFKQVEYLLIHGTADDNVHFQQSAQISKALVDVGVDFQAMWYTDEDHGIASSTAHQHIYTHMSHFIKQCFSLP
Readout Name: log10(IC50) (log10 of the value in nM)

* N[C@H](C(=O)N1CC[C@H](F)C1)[C@@H](C(=O)NCCO)c1ccc(-c2ccc(F)cc2)cc1 | 1.97
* CN(C)C(=O)[C@@H](c1ccc(-c2cccc(-n3cnnn3)c2)cc1)[C@H](N)C(=O)N1CC[C@H](F)C1.O=C(O)C(F)(F)F | 0.34
* COC(=O)[C@@H](c1ccc(-c2ccc(F)cc2)cc1)[C@H](N)C(=O)N1CC[C@H](F)C1 | 2.34
* CN(C)C(=O)[C@@H](c1ccc(-c2ccc(F)cc2)cc1)[C@H](N)C(=O)N1CCC(F)(F)C1 | 1.43
* CN(C)C(=O)[C@@H](c1ccc(-c2cc(F)ccc2F)cc1)[C@H](N)C(=O)N1CC[C@H](F)C1 | 1.75
* N[C@H](C(=O)N1CC[C@H](F)C1)[C@@H](C(=O)N1CCC1)c1ccc(-c2ccc(F)cc2)cc1 | 1.64
* CCN(CC)C(=O)[C@@H](c1ccc(-c2ccc(F)cc2)cc1)[C@H](N)C(=O)N1CC[C@H](F)C1 | 1.77
* CN(C)C(=O)[C@@H](c1ccc(-c2ccc(F)cc2F)cc1)[C@H](N)C(=O)N1CC[C@H](F)C1 | 1.11
* N[C@H](C(=O)N1CC[C@H](F)C1)[C@@H](CN1CCCC1)c1ccc(-c2ccc(F)cc2)cc1 | 3.54
* CN(C)C(=O)[C@@H](c1ccc(-c2ccc(F)cc2)cc1)[C@H](N)C(=O)N1CCSC1 | 0.96
* CNC(=O)[C@@H](c1ccc(-c2ccc(F)cc2)cc1)[C@H](N)C(=O)N1CC[C@H](F)C1 | 1.57
* CN(C)C[C@@H](c1ccc(-c2ccc(F)cc2)cc1)[C@H](N)C(=O)N1CC[C@H](F)C1 | 3.20
* CN(C)C(=O)[C@@H](c1ccc(-c2ccc(F)cc2)cc1)[C@H](N)C(=O)N1CCC[C@H]1C#N | 0.52
* CN(C)C(=O)[C@@H](c1ccc(-c2ccc(-[n+]3ccccc3)cc2)cc1)[C@H](N)C(=O)N1CC[C@H](F)C1 | 1.30
* CCNC(=O)[C@@H](c1ccc(-c2ccc(F)cc2)cc1)[C@H](N)C(=O)N1CC[C@H](F)C1 | 2.04
* CN(C)C(=O)[C@@H](c1ccc(-c2ccc(F)cc2)cc1)[C@H](N)C(=O)N1CCOCC1 | 2.72
* NC(=O)[C@@H](c1ccc(-c2ccc(F)cc2)cc1)[C@H](N)C(=O)N1CC[C@H](F)C1 | 2.04
* CN(C)C(=O)[C@@H](c1ccc(-c2ccc(F)cc2)cc1)[C@H](N)C(=O)N1CCCC1.O=C(O)C(F)(F)F | 0.88

----------
Molecular target: Dipeptidyl peptidase 4 (Mus musculus, UniProt P28843)
Sequence (P28843 whole entry): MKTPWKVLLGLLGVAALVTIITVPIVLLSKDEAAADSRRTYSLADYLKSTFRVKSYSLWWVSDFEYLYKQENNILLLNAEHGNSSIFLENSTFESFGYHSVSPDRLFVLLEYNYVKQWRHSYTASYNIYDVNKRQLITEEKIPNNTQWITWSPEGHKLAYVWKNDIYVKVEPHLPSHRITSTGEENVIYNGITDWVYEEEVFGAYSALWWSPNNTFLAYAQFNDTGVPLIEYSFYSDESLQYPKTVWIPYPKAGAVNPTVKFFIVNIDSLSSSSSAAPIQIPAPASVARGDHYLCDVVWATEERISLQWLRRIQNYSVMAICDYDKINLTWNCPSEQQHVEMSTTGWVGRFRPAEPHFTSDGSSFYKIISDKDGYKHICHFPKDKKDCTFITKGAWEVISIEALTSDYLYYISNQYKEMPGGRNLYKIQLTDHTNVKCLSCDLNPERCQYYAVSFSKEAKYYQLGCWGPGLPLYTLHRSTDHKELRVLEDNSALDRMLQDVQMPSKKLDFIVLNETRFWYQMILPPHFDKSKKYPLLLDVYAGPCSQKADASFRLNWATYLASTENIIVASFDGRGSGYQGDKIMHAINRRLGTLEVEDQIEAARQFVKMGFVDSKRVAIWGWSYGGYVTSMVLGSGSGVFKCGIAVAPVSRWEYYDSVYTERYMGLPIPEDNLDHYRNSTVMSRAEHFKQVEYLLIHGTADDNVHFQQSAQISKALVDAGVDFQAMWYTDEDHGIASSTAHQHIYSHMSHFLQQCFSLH
Test: Inhibitory concentration against mouse dipeptidylpeptidase IV in presence of 50% mouse serum
pIC50: −log10 of the molar value.
Readout Name: pIC50

• CN(C)C(=O)[C@@H](c1ccc(-c2ccc(F)cc2)cc1)[C@H](N)C(=O)N1CC[C@H](F)C1.O=C(O)C(F)(F)F = 6.64

----------
pIC50 values for the compounds below.
Molecular target: Dipeptidyl peptidase 2 (Homo sapiens, UniProt Q9UHL4)
pIC50: −log10 of the molar value.
Readout Name: pIC50

- CN(C)C(=O)[C@@H](c1ccc(-c2cccc(C#N)c2)cc1)[C@H](N)C(=O)N1CC[C@H](F)C1: 4.24
- CN(C)C(=O)[C@@H](c1ccc(-c2cccc(-[n+]3ccccc3)c2)cc1)[C@H](N)C(=O)N1CC[C@H](F)C1: 4.24
- CN(C)C(=O)[C@@H](c1ccc(-c2ccc(F)cc2)cc1)[C@H](N)C(=O)N1CCC(F)(F)C1: 5.15
- CN(C)C[C@@H](c1ccc(-c2ccc(F)cc2)cc1)[C@H](N)C(=O)N1CC[C@H](F)C1: 5.60
- CCN(CC)C(=O)[C@@H](c1ccc(-c2ccc(F)cc2)cc1)[C@H](N)C(=O)N1CC[C@H](F)C1: 4.32
- CN(C)C(=O)[C@@H](c1ccc(-c2ccc(F)cc2)cc1)[C@H](N)C(=O)N1CCCC1.O=C(O)C(F)(F)F: 4.59
- CN(C)C(=O)[C@@H](c1ccc(-c2cccc(S(C)(=O)=O)c2)cc1)[C@H](N)C(=O)N1CC[C@H](F)C1: 4.09
- CCN(C)C(=O)[C@@H](c1ccc(-c2ccc(F)cc2)cc1)[C@H](N)C(=O)N1CC[C@H](F)C1: 4.37
- CN(C)C(=O)[C@@H](c1ccc(-c2ccc(F)cc2)cc1)[C@H](N)C(=O)N1CCCCC1: 4.42
- CN(C)C(=O)[C@@H](c1ccc(-c2ccc(F)cc2F)cc1)[C@H](N)C(=O)N1CC[C@H](F)C1: 4.82
- N[C@H](C(=O)N1CC[C@H](F)C1)[C@@H](CO)c1ccc(-c2ccc(F)cc2)cc1: 4.82
- CN(C)C(=O)[C@@H](c1ccc(-c2cc(F)ccc2F)cc1)[C@H](N)C(=O)N1CC[C@H](F)C1: 4.96
